Recorded values, source ChEMBL document CHEMBL3991601.

- STUDY TARGET: Serine/threonine-protein kinase D2 (Homo sapiens); note: in the data inactive means no Kd found up to 30 µM
- Sequence (Q9BZL6 whole entry): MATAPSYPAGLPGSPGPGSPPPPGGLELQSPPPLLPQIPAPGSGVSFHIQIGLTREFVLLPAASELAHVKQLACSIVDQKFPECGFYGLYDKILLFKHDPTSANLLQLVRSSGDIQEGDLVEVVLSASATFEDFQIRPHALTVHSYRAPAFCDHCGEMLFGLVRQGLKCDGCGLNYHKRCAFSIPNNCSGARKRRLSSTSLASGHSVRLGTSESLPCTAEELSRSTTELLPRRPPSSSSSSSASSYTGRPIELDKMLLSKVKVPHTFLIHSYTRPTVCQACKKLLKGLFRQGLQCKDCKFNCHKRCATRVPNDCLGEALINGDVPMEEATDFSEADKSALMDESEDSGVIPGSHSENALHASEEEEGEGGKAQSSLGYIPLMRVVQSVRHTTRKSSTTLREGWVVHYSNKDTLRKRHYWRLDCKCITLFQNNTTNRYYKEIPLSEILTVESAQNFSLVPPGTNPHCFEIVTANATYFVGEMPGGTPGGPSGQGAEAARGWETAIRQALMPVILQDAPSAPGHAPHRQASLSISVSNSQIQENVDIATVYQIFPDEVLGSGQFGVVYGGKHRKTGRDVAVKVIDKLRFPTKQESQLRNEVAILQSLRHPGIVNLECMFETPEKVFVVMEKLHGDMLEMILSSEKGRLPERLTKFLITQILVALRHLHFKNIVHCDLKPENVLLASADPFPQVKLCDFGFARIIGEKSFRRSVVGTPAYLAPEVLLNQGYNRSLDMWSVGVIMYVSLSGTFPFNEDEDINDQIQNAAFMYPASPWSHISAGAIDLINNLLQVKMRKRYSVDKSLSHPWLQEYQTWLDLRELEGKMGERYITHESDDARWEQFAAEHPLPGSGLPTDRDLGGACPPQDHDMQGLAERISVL
Structures can show the parent of a compound that is named as a salt. Calls of active or inactive are those of the source.
Outcome field: choose from true for active, false for inactive

Ask: Test call, this molecule: C[C@@H](Oc1cc(C(=O)Nc2ccc(C(=O)N3CCN(C)CC3)cc2)nnc1N)c1c(Cl)ccc(F)c1Cl
Reply: false

Ask: Fill in: this test's call for Nc1ncnc2c1c(-c1cccc(OCc3ccccc3)c1)cn2[C@H]1C[C@@H](CN2CCC2)C1 is ___
Reply: false

Ask: Recorded test outcome, item Cc1nc2cc(-n3ncc(C(=O)c4cc5ccccc5[nH]4)c3N)ccc2[nH]1
Reply: false

Ask: Tell me the assay call for Cc1cc(C(=O)NOCCO)c(Nc2ccc(I)cc2F)n(C)c1=O please.
Reply: false

Ask: For COCc1c(-c2ccc(NC(=O)Nc3cc(C(F)(F)F)ccc3F)c(F)c2)c2c(N)ncnn2c1CN1CCOCC1 , what call appears in the results of this test?
Reply: false

Ask: Per the assay record, what outcome was assigned to CO[C@H]1C[C@@H]2CC[C@@H](C)[C@@](O)(O2)C(=O)C(=O)N2CCCC[C@H]2C(=O)O[C@H]([C@H](C)C[C@@H]2CC[C@@H](O)[C@H](OC)C2)CC(=O)[C@H](C)/C=C(\C)[C@@H](O)[C@@H](OC)C(=O)[C@H](C)C[C@H](C)/C=C/C=C/C=C/1C ?
Reply: false

Ask: Answer briefly: the call reported for CN1C/C=C/CCOc2cccc(c2)-c2ccnc(n2)Nc2cccc(c2)C1 in this assay.
Reply: true

Ask: Tell me the recorded outcome of this test for Cc1cc(Nc2ncnc3ccc(NC4=NC(C)(C)CO4)cc23)ccc1Oc1ccn2ncnc2c1 .
Reply: false

Ask: Kindly provide the recorded test outcome for the following molecule: COc1ccc(S(=O)(=O)N(C(C)=O)c2ccccc2/C=C/c2cc[n+]([O-])cc2)cc1
Reply: false

Ask: What call does the record list for CNC(=O)c1cccc2cc(Oc3ccnc4cc(OCC5(N)CC5)c(OC)cc34)ccc12 ?
Reply: false

Ask: Test call, this molecule: CCOc1cc2ncc(C#N)c(Nc3ccc(F)c(Cl)c3)c2cc1NC(=O)/C=C/CN(C)C
Reply: false

Ask: Dear all, I need the recorded test outcome for CCS(=O)(=O)N1CCN(c2ccc(Nc3ncc(C(N)=O)c(NC4CC4)n3)cc2)CC1 [Cerdulatinib Hydrochloride] , thank you.
Reply: true

Ask: For Cc1cccc(-c2nn3c(c2-c2ccnc4ccc(C(N)=O)cc24)CCC3)n1 , what call appears in the results of this test?
Reply: false

Ask: Recorded test outcome, item O=C(Cc1ccc(-c2ccc(OCCN3CCOCC3)cc2)cn1)NCc1ccccc1
Reply: false

Ask: Assay result, entry Cc1nc2cc(-c3nn(C(C)C)c4ncnc(N)c34)ccc2o1 — outcome?
Reply: false

Ask: Entry COCC(=O)NC/C=C/c1ccc2ncnc(Nc3ccc(Oc4ccc(C)nc4)c(C)c3)c2c1 : call = ?
Reply: false

Ask: Fill in: this test's call for CN(C[C@@H]1COCCO1)S(=O)(=O)Nc1ccc2ccc3ncc(-c4cnn(C)c4)cc3c(=O)c2c1 is ___
Reply: false

Ask: # fetch the recorded call for Cc1nc(NC(=O)N2CCC[C@H]2C(N)=O)sc1-c1ccnc(C(C)(C)C(F)(F)F)c1 here
Reply: false

Ask: How did this test come out for Cn1cnc2c(F)c(Nc3ccc(Br)cc3F)c(C(=O)NOCCO)cc21 ?
Reply: false

Ask: Dear all, I need the recorded test outcome for CC(C)c1cc(CNc2nc(Nc3cc(C4CC4)[nH]n3)cc(N3CCN(C)CC3)n2)on1 , thank you.
Reply: true

Ask: Call for entry CCNC(=O)C#Cc1ccc2c(c1)NC(=O)/C2=C(\Nc1ccc(CN(C)C)cc1)c1ccccc1 :
Reply: false

Ask: Identify the outcome logged in this assay for the molecule shown: C[C@@H](NC(=O)c1ncnc(N)c1Cl)c1ncc(C(=O)Nc2cc(C(F)(F)F)c(Cl)cn2)s1
Reply: false

Ask: What did the test return for NC(=O)Nc1cc(-c2cccc(F)c2)sc1C(=O)N[C@H]1CCCNC1 ?
Reply: true

Ask: Identify the outcome logged in this assay for the molecule shown: C[C@H]1CNCCCN1S(=O)(=O)c1cccc2cncc(F)c12
Reply: true

Ask: I'd appreciate the recorded outcome for O=c1[nH]ccc2cc(OC3CCNCC3)ccc12 [SAR-407899 FREE BASE] from this test.
Reply: false

Ask: Could you kindly confirm the outcome this assay logged for COc1cc2ncnc(Oc3cccc(NC(=O)Nc4cc(C(C)(C)C(F)(F)F)on4)c3)c2cc1OC ?
Reply: false

Ask: Fill in: this test's call for CC(C)(C)c1nc(-c2cccc(NS(=O)(=O)c3c(F)cccc3F)c2F)c(-c2ccnc(N)n2)s1 is ___
Reply: true

Ask: # fetch the recorded call for CO[C@H]1C[C@@H]2CC[C@@H](C)[C@@](O)(O2)C(=O)C(=O)N2CCCC[C@H]2C(=O)O[C@H]([C@H](C)C[C@@H]2CC[C@@H](OC(=O)C(C)(CO)CO)[C@H](OC)C2)CC(=O)[C@H](C)/C=C(\C)[C@@H](O)[C@@H](OC)C(=O)[C@H](C)C[C@H](C)/C=C/C=C/C=C/1C here
Reply: false

Ask: In this assay, the call recorded for CCCCCCCCCCCCCCCCCCOP(=O)([O-])OC1CC[N+](C)(C)CC1 was what?
Reply: false

Ask: Record request — test call for CNC(=O)c1nn(C)c2c1C(C)(C)Cc1cnc(Nc3ccc(N4CCN(C)CC4)cc3)nc1-2
Reply: true
